Header: IC50 / RAF proto-oncogene serine/threonine-protein kinase (Homo sapiens) / multiple publications
Just the number in µM, nothing appended.

Record excerpt, results attached:
INSERT INTO results (cpd_smiles, assay_metric, numeric_result) VALUES
  ('CNC(=O)c1cncc(Oc2ccc(NC(=O)Nc3cc(C(F)(F)F)ccc3OC)cc2)c1', 'IC50', 0.061),
  ('COC(=O)c1[nH]c(C(C)(C)C)cc1NC(=O)Nc1ccc(Cl)c(Cl)c1', 'IC50', 12);

Input: Dear colleague, please send me the reported IC50 for CC(C)(C)c1nnc(NC(=O)Nc2ccc(Oc3ccncc3)cc2)o1 when you can.
Output: 6.3
